# Species: Rattus norvegicus
# Experiment Description: Ratio of heart rate reduction to mean arterial blood pressure reduction
# Type: functional
Measurement Kind: Selectivity
Number only, please.

Lab note: measured Selectivity of COc1cc2c(cc1OC)CC(=O)N(CCCN(C)CCc1c[nH]c3ccc(Br)cc13)CC2 was 0.98

Lab note: measured Selectivity of COc1ccc(CCN(C)CCCN2CCc3cc(OC)c(OC)cc3CC2=O)cc1OC was 2.6

Lab note: measured Selectivity of COc1cc2c(cc1OC)CC(=O)N(CCCN(C)CCCc1ccco1)CC2 was 0.31

Lab note: measured Selectivity of COc1cc2c(cc1OC)CC(=O)N(CCCN(C)CCc1csc3ccccc13)CC2 was 1.2

Lab note: measured Selectivity of COc1cc2c(cc1OC)CC(=O)N(CCCN(C)CCCc1c[nH]c3ccccc13)CC2 was 1.8

Lab note: measured Selectivity of COc1cc2c(cc1OC)CC(=O)N(CCCN(C)CCc1cn(C)c3ccccc13)CC2 was 2.3

Lab note: measured Selectivity of COc1cc2c(cc1OC)CC(=O)N(CCCN(C)CCc1csc3cc(OS(C)(=O)=O)ccc13)CC2 was 2.4

Lab note: measured Selectivity of COc1cc2c(cc1OC)CC(=O)N(CCCN(C)CCc1cccs1)CC2 was 0.82

Lab note: measured Selectivity of COc1cc2c(cc1OC)CC(=O)N(CCCN(C)CCc1cccn1C)CC2 was 1.7

Lab note: measured Selectivity of COc1cc2c(cc1OC)CC(=O)N(CCCN(C)CCc1csc3ccc(Br)cc13)CC2 was 1.2

---

# Species: Rattus norvegicus
# Experiment Description: Ratio of heart rate reduction to mean arterial blood pressure reduction
# Type: functional
Measurement Kind: Selectivity
Number only, please.

Lab note: measured Selectivity of COc1cc2c(cc1OC)CC(=O)N(CCCN(C)CCc1csc3cc(OC)c(OC)cc13)CC2 was 1.4

Lab note: measured Selectivity of COc1ccc2c(CCN(C)CCCN3CCc4cc(OC)c(OC)cc4CC3=O)csc2c1 was 1.3

Lab note: measured Selectivity of COc1cc2c(cc1OC)CC(=O)N(CCCN(C)CCc1c[nH]c3ccc(O)cc13)CC2 was 1.8

Lab note: measured Selectivity of COc1ccc2c(CCN(C)CCCN3CCc4cc(OC)c(OC)cc4CC3=O)coc2c1 was 1.7

Lab note: measured Selectivity of COc1cc2c(cc1OC)CC(=O)N(CCCN(C)CCCc1csc3ccccc13)CC2 was 1.4

---

# Organism: Rattus norvegicus
# Experiment Description: Ratio of heart rate reduction to mean arterial blood pressure reduction
# Format: functional
Kindly supply the reported Selectivity values for the records listed here.
Number only, please.

Lab note: measured Selectivity of COc1ccc2[nH]cc(CCN(C)CCCN3CCc4cc(OC)c(OC)cc4CC3=O)c2c1 was 1.8

Lab note: measured Selectivity of COc1cc2c(cc1OC)CC(=O)N(CCCN(C)CCc1cc3ccccc3o1)CC2 was 1.7

Lab note: measured Selectivity of COc1cc2c(cc1OC)CC(=O)N(CCCN(C)CCc1c[nH]c3ccc(OCc4ccccc4)cc13)CC2 was 1.1

Lab note: measured Selectivity of COc1cc2c(cc1OC)CC(=O)N(CCCN(C)CCc1ccco1)CC2 was 0.23

Lab note: measured Selectivity of COc1cc2c(cc1OC)CC(=O)N(CCCN(C)CCc1csc3cc(O)ccc13)CC2 was 1.7

---

# Tested on: Rattus norvegicus
# Experiment Description: Bradycardic activity was evaluated in an anesthetized rat model as percent heart rate(beats/min) reduction 20 min after iv injection of 5 mg/kg
# Format: functional
Measurement Kind: Delta HR (%)
Give the value in % but do not write % after it.

Lab note: measured Delta HR of COc1cc2c(cc1OC)CC(=O)N(CCCN(C)CCc1c[nH]c3ccc(O)cc13)CC2 was -24

Lab note: measured Delta HR of COc1cc2c(cc1OC)CC(=O)N(CCCN(C)CCCCc1cccs1)CC2 was -24

Lab note: measured Delta HR of COc1ccc(CCN(C)CCCN2CCc3cc(OC)c(OC)cc3CC2=O)cc1OC [ZATEBRADINE] was -46

Lab note: measured Delta HR of COc1cc2c(cc1OC)CC(=O)N(CCCN(C)CCc1cccnc1)CC2 was -18

Lab note: measured Delta HR of COc1cc2c(cc1OC)CC(=O)N(CCCN(C)CCc1ccco1)CC2 was -11

Lab note: measured Delta HR of COc1cc2c(cc1OC)CC(=O)N(CCCN(C)CCc1csc3ccc(C)cc13)CC2 was -38

Lab note: measured Delta HR of COc1cc2c(cc1OC)CC(=O)N(CCCN(C)CCCc1c[nH]c3ccccc13)CC2 was -47

Lab note: measured Delta HR of COc1cc2c(cc1OC)CC(=O)N(CCCN(C)Cc1csc3ccccc13)CC2 was -7

Lab note: measured Delta HR of COc1cc2c(cc1OC)CC(=O)N(CCCN(C)CCc1coc3ccccc13)CC2 was -39

Lab note: measured Delta HR of COc1cc2c(cc1OC)CC(=O)N(CCCN(C)CCc1cc3ccccc3o1)CC2 was -45

Lab note: measured Delta HR of COc1cc2c(cc1OC)CC(=O)N(CCCN(C)CCc1csc3cc(O)ccc13)CC2 was -37

Lab note: measured Delta HR of COc1cc2c(cc1OC)CC(=O)N(CCCN(C)CCCCCc1cccs1)CC2 was -36

Lab note: measured Delta HR of COc1cc2c(cc1OC)CC(=O)N(CCCN(C)CCc1c[nH]c3ccc(OCc4ccccc4)cc13)CC2 was -46

Lab note: measured Delta HR of COc1cc2c(cc1OC)CC(=O)N(CCCN(C)CCc1ccncc1)CC2 was -21

Lab note: measured Delta HR of COc1cc2c(cc1OC)CC(=O)N(CCCN(C)Cc1c(C)noc1C)CC2 was -14

---

Kindly supply the reported Delta MAP values for the records listed here.
# Test system: Rattus norvegicus
# Experiment Description: Hypotensive activity was evaluated in an anesthetized rat model as percent mean aortic blood pressure(mm hg) reduction 5 min after iv injection of 5 mg/kg
# Type: functional, Artery
Give the value in % but do not write % after it.

Lab note: measured Delta MAP of COc1cc2c(cc1OC)CC(=O)N(CCCN(C)CCc1coc3ccccc13)CC2 was -39

Lab note: measured Delta MAP of COc1cc2c(cc1OC)CC(=O)N(CCCN(C)CCc1c[nH]cn1)CC2 was -11

Lab note: measured Delta MAP of COc1cc2c(cc1OC)CC(=O)N(CCCN(C)CCc1csc3ccccc13)CC2 was -55

Lab note: measured Delta MAP of COc1cc2c(cc1OC)CC(=O)N(CCCN(C)CCc1c[nH]c3ccccc13)CC2 was -23

Lab note: measured Delta MAP of COc1cc2c(cc1OC)CC(=O)N(CCCN(C)CCc1cn(C)c3ccccc13)CC2 was -22

Lab note: measured Delta MAP of COc1cc2c(cc1OC)CC(=O)N(CCCN(C)CCc1cc3ccccc3o1)CC2 was -39

Lab note: measured Delta MAP of COc1cc2c(cc1OC)CC(=O)N(CCCN(C)CCc1c[nH]c3c(C)cccc13)CC2 was -26

Lab note: measured Delta MAP of COc1ccc2c(CCN(C)CCCN3CCc4cc(OC)c(OC)cc4CC3=O)csc2c1 was -52

Lab note: measured Delta MAP of COc1cc2c(cc1OC)CC(=O)N(CCCN(C)CCCc1csc3ccccc13)CC2 was -46

Lab note: measured Delta MAP of COc1cc2c(cc1OC)CC(=O)N(CCCN(C)CCc1csc3cccc(OC)c13)CC2 was -21

Lab note: measured Delta MAP of COc1cc2c(cc1OC)CC(=O)N(CCCN(C)CCc1csc3cc(O)ccc13)CC2 was -29

Lab note: measured Delta MAP of COc1cc2c(cc1OC)CC(=O)N(CCCN(C)CCCCCCc1cccs1)CC2 was -26

Lab note: measured Delta MAP of COc1cc2c(cc1OC)CC(=O)N(CCCN(C)CCc1c[nH]c3ccc(O)cc13)CC2 was -27

Lab note: measured Delta MAP of COc1cc2c(cc1OC)CC(=O)N(CCCN(C)Cc1csc3ccccc13)CC2 was -27

Lab note: measured Delta MAP of COc1cc2c(cc1OC)CC(=O)N(CCCN(C)CCCc1ccco1)CC2 was -61

Lab note: measured Delta MAP of COc1cc2c(cc1OC)CC(=O)N(CCCN(C)CCc1csc3ccc(C)cc13)CC2 was -36

Lab note: measured Delta MAP of COc1cc2c(cc1OC)CC(=O)N(CCCN(C)CCc1cn(C)cn1)CC2 was -10

Lab note: measured Delta MAP of COc1cc2c(cc1OC)CC(=O)N(CCCN(C)CCc1csc3cc(OS(C)(=O)=O)ccc13)CC2 was -21

Lab note: measured Delta MAP of COc1cc2c(cc1OC)CC(=O)N(CCCN(C)CCc1ccco1)CC2 was -52

Lab note: measured Delta MAP of COc1ccc2[nH]cc(CCN(C)CCCN3CCc4cc(OC)c(OC)cc4CC3=O)c2c1 was -18

Lab note: measured Delta MAP of COc1cc2c(cc1OC)CC(=O)N(CCCN(C)CCc1c[nH]c3ccc(Br)cc13)CC2 was -34

Lab note: measured Delta MAP of COc1cc2c(cc1OC)CC(=O)N(CCCN(C)CCc1csc3ccc(Br)cc13)CC2 was -41

Lab note: measured Delta MAP of COc1cc2c(cc1OC)CC(=O)N(CCCN(C)CCc1csc3cc(OC)c(OC)cc13)CC2 was -17

Lab note: measured Delta MAP of COc1cc2c(cc1OC)CC(=O)N(CCCN(C)CCc1csc3c1CCCC3)CC2 was -43

Lab note: measured Delta MAP of COc1cc2c(cc1OC)CC(=O)N(CCCN(C)CCc1cc(C)sc1C)CC2 was -36

Lab note: measured Delta MAP of COc1cc2c(cc1OC)CC(=O)N(CCCN(C)CCc1cccnc1)CC2 was -11
